FYI, the data here is from paper PMC7618180.

# tgt: ^NRA peptide
# test summary: ITC
reported endpoint: pKd
The value called pKd is obtained by taking minus log10 of the concentration in mol/L.

Entry AtUBR4 ZZ domain (domain or fragment) SSVQYCCDGCSTVPILRRRWHCTVCPDFDLCEACYEVLDADRLPPPHTRDHPMTAIPI has what pKd? 5.00
